What abundance fitness was measured for each of the following?
B1: Cyclin-F, residues 28 to 80; numbered along this chain, P41002 (parent)
chain: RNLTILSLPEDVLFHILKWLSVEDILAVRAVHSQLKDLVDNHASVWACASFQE

variants of: B1; assay: abundance fitness (aPCA) (normalised: wild type 0, dead -1); higher = more abundant; growth selection in yeast, the domain comes from the species named; settings: Homo sapiens
Would you mind answering with just the numeric figure?

I have this variant here, T4A , and I need its recorded abundance fitness.
-0.768

One more variant: A27M
-0.273

One more variant: P9F
-0.621

One more variant: V28R
-0.833

One more variant: V28S
-0.823

One more variant: N2Y
-0.366

One more variant: P9K
-0.818

One more variant: H32P
-0.737

One more variant: L6D
-0.593

One more variant: S7K
-0.109

One more variant: L20V
-0.484

Data origin: the Human Domainome abundance scans (Beltran et al. 2025)
